- Test system: wild-type ZIKV (Ugandan MR766 strain) in Vero cells
- PROCEDURE SUMMARY: ZIKV cytopathic effect (CPE) inhibition qHTS assay, CellTiter-Glo readout
- Type: cell-based, Zika virus
- MEASUREMENT CONDITIONS: Zika virus, Vero, read-out: Log AC50 (M) (converted)
Where a SMILES comes first, the peptide text is derived from it. [ ]: non-standard residue; d: D form. ξ: configuration not given here. ξLac(3-iPr) = CC(C)CC(O)C(=O)O; NMeV = CN[CH](C(=O)O)C(C)C; NMeA = CN[CH](C)C(=O)O; βAla = NCCC(=O)O
MEASURED PROPERTY: AC50 (M)
Give your result in M as a bare value.

Briefly, AC50 measured for CC(C)(O)C(O)C(=O)OCc1ccc(O[C@@H]2O[C@H](CO)[C@@H](O)[C@H](O)[C@H]2O)cc1 (some centres unmarked) : 1e-05

Briefly, AC50 measured for CCC(C)C1NC(=O)C2CCCN2C(=O)C(CC(C)C)OC(=O)CCNC(=O)C(C)N(C)C(=O)C(C(C)C)N(C)C1=O (centres unmarked) [NCGC00169957-03] (cyclo([ξLac(3-iPr)]PI[NMeV][NMeA][βAla]); configuration not given here) : 1.93e-05

Briefly, AC50 measured for CC(C)c1cccc2c(-c3ccccc3)cc(-c3ccc(-c4ccc(C(=O)O)cc4)[nH]3)nc12 : 2.91e-05

Briefly, AC50 measured for CN(C)CC1CCn2c(c(C3=C(c4cn(C)c5ccccc45)C(=O)NC3=O)c3ccccc32)C1 (centres unmarked) : 3.26e-05

Briefly, AC50 measured for CC1(C)C=CN2C(=O)C3=CCCN3C(=O)[C@@H]2C[C@@]12Nc1ccccc1C2=O : 4.53e-05

Briefly, AC50 measured for CN[C@H](CC(C)C)C(=O)N[C@H]1C(=O)N[C@@H](CC(N)=O)C(=O)N[C@H]2C(=O)N[C@H]3C(=O)N[C@H](C(=O)N[C@H](C(=O)O)c4cc(O)cc(O)c4-c4cc3ccc4O)[C@H](O[C@H]3C[C@](C)(N)[C@@H](O)[C@H](C)O3)c3ccc(c(Cl)c3)Oc3cc2cc(c3O[C@@H]2O[C@H](CO)[C@@H](O)[C@H](O)[C@H]2O[C@H]2C[C@](C)(NCc3ccc(-c4ccc(Cl)cc4)cc3)[C@@H](O)[C@H](C)O2)Oc2ccc(cc2Cl)[C@H]1O : 1.37e-05

Briefly, AC50 measured for CC(C)=CCC/C(C)=C/COCC1OC(n2ccc(=O)[nH]c2=O)C(O)C1O (centres unmarked) : 4.53e-05

Briefly, AC50 measured for C=C(CO)[C@@]12O[C@@H]1[C@@]1(C)C(=CC2=O)CC[C@@H](O)[C@@H]1C : 8.2e-06

Briefly, AC50 measured for c1ccc(CNc2nc(N3CCOc4ccccc43)nc3c2CCCC3)cc1 : 5.17e-05

Briefly, AC50 measured for C[C@@H]1C[C@@H]([C@@H](O)C(C)(C)O)O[C@H]2C[C@@]3(C)C(=C12)C[C@H](O)[C@H]1[C@@]2(C)CCC(=O)C(C)(C)C2CC[C@@]13C (some centres unmarked) : 1.59e-05

Briefly, AC50 measured for COc1ccc([C@H]2OC[C@H]3O[C@@H](O[C@H]4[C@@H]2NC[C@@H]4O)[C@H](O)[C@H]3O)cc1 : 2.27e-05

---

- System: wild-type ZIKV (Ugandan MR766 strain) in Vero cells
- PROCEDURE SUMMARY: ZIKV cytopathic effect (CPE) inhibition qHTS assay, CellTiter-Glo readout
- Format: cell-based, Zika virus
- MEASUREMENT CONDITIONS: difference between neutral response and maximum compound response
MEASURED PROPERTY: Efficacy
Output: the number by itself.

Bench note, wild-type ZIKV (Ugandan MR766 strain) in Vero cells: entry CCCCCOc1cc2c(cc1-c1cc(/C=C/C(=O)O)ccc1O)C(C)(C)CCC2(C)C [NCGC00370868-01] , its Efficacy = -36.339

Bench note, wild-type ZIKV (Ugandan MR766 strain) in Vero cells: entry O=C1NC2CCCCN2C12CCN(CCCN1c3ccccc3CCc3ccc(Cl)cc31)CC2 (stereo not shown) [NCGC00183853-01] , its Efficacy = -47.567

Bench note, wild-type ZIKV (Ugandan MR766 strain) in Vero cells: entry C=C(C)C(=O)OC1CC2(C)OC(=CC2=O)C(=C)CC2OC(=O)C(=C)C12 (stereo not shown) [NCGC00381113-01] , its Efficacy = -29.164

Bench note, wild-type ZIKV (Ugandan MR766 strain) in Vero cells: entry COc1ccc(CC2C(=O)NC(C)C(=O)N(C)C3Cc4ccc(cc4)Oc4cc(ccc4OC4OC(CO)C(O)C(O)C4O)CC(C(=O)NC(C)C(=O)NC(C)C(=O)N2C)N(C)C3=O)cc1 (stereo not shown) [NCGC00384826-01] , its Efficacy = -63.548

Bench note, wild-type ZIKV (Ugandan MR766 strain) in Vero cells: entry CC(=O)OCC1OC(OC2COC(OC3COC(OC4C(OC5C(CO)OC(OC6CCC7(C)C(CCC8(C)C7CC=C7C9CC(C)(C)CCC9(C(=O)OC9OC(CO)C(O)C(O)C9OC9OCC(OC%10OCC(O)(CO)C%10O)C(O)C9O)C(O)CC78C)C6(C)C)C(O)C5O)OCC(O)C4O)C(O)C3O)C(O)C2O)C(OC(=O)/C=C/c2ccccc2)C(O)C1OC(C)=O (stereo not shown) [NCGC00381294-01] , its Efficacy = -55.683

Bench note, wild-type ZIKV (Ugandan MR766 strain) in Vero cells: entry CC1(C)CC2C3=CCC4[C@@]5(C)CC[C@H](OC6OCC(O)C(OC7OC(CO)C(O)C(O)C7O)C6O)C(C)(C)C5CC[C@@]4(C)[C@]3(C)C[C@H](O)[C@@]2(CO)[C@H](OC(=O)c2ccccc2)C1 (stereo partly shown) [NCGC00347604-02] , its Efficacy = -34.889

Bench note, wild-type ZIKV (Ugandan MR766 strain) in Vero cells: entry COc1c(C(C)C)cc2c(c1O)[C@@]1(C(=O)O)CCCC(C)(C)C1CC2 (stereo partly shown) [NCGC00169945-03] , its Efficacy = -27.847

---

- System: wild-type ZIKV (Ugandan MR766 strain) in Vero cells
- PROCEDURE SUMMARY: ZIKV cytopathic effect (CPE) inhibition qHTS assay, CellTiter-Glo readout
- Assay type: cell-based, Zika virus
- MEASUREMENT CONDITIONS: Zika virus, Vero, read-out: Log AC50 (M) (converted)
MEASURED PROPERTY: AC50 (M)
Give your result in M as a bare value.

Briefly, AC50 measured for C[C@@H]1O[C@@H](O[C@H]2[C@H](OC(=O)[C@]34CCC(C)(C)C[C@H]3C3=CCC5[C@@]6(C)C[C@H](O)[C@H](O[C@@H]7O[C@H](C(=O)O)[C@@H](O)[C@H](O)[C@H]7O)[C@@](C)(CO)C6[C@H](O)C[C@@]5(C)[C@]3(C)CC4)OC[C@H](O)[C@@H]2O)[C@H](O)[C@H](O)[C@H]1O[C@@H]1OC[C@@H](O)[C@H](O[C@@H]2O[C@@H](C)[CH][C@@H](O)[C@H]2O)[C@H]1O (stereo partly drawn) : 4.36e-06

Briefly, AC50 measured for C[C@@]1(O)[C@H](O)[C@@H](CO)O[C@H]1n1cnc2c(=O)[nH]c(N)nc21 : 3.66e-05

Briefly, AC50 measured for COc1cc(N(C)CCN(C)C)c(N)cc1Nc1nccc(-c2cn(C)c3ccccc23)n1 : 6.51e-05

---

- Test system: wild-type ZIKV (Ugandan MR766 strain) in Vero cells
- PROCEDURE SUMMARY: ZIKV cytopathic effect (CPE) inhibition qHTS assay, CellTiter-Glo readout
- Assay type: cell-based, Zika virus
*1 amine or outer side, *2 acyl side, *3 side chain or, on linkers, in order; H or OH if unused. Where a SMILES comes first, the peptide text is derived from it. Bridges are numbered along the chain shown (N, C = ends). [ ]: non-standard residue; d: D form. The star is where a group is joined. pTerphenylCO(4''-OnC5H11) = CCCCCOc1ccc(-c2ccc(-c3ccc(C(=O)*)cc3)cc2)cc1; Orn(4R-OH,5R-OH) = O=C([C@H](C[C@@H](O)[C@@H](O)N[*:3])N[*:1])[*:2]; hTyr(3S-OH,4S-OH) = N[C@H](C(=O)O)[C@H](O)[C@@H](O)c1ccc(O)cc1; Pro(3S-OH,4S-Me) = C[C@H]1CN[C@H](C(=O)O)[C@H]1O; Hyp = O=C(O)[C@@H]1C[C@@H](O)CN1
MEASURED PROPERTY: Efficacy
Output: the number by itself.

Briefly, Efficacy measured for C=C(C(=O)O)[C@@H]1CC[C@@]2(C)CCC[C@@](C)(O)[C@@H]2C1 : -77.65

Briefly, Efficacy measured for CCCCCOc1ccc(-c2ccc(-c3ccc(C(=O)N[C@H]4C[C@@H](O)[C@@H](O)NC(=O)[C@@H]5[C@@H](O)[C@@H](C)CN5C(=O)[C@H]([C@@H](C)O)NC(=O)[C@H]([C@H](O)[C@@H](O)c5ccc(O)cc5)NC(=O)[C@@H]5C[C@@H](O)CN5C(=O)[C@H]([C@@H](C)O)NC4=O)cc3)cc2)cc1 [NCGC00386349-01] ({pTerphenylCO(4''-OnC5H11)}-[Orn(4R-OH,5R-OH)]T[Hyp][hTyr(3S-OH,4S-OH)]T[Pro(3S-OH,4S-Me)]; lactam 1-C) : -31.74

Briefly, Efficacy measured for C=CC(C)(O)CC[C@@H]1[C@@]2(C)CCCC(C)(C)C2CC[C@@]1(C)O (stereo partly drawn) : -26.101

Briefly, Efficacy measured for CC1(C)CC2C(O)C3=C(CC(C)(O)C2C1)C(=O)OC3 (stereo not drawn) : -83.269

Briefly, Efficacy measured for OCCCNc1cc(-c2ccnc(Nc3cccc(Cl)c3)n2)ccn1 : -105.653

Briefly, Efficacy measured for C=C(CO)C(=O)O[C@H]1C/C(C)=C/CC/C(CO)=C/[C@H]2OC(=O)C(=C)[C@H]12 : -76.574
